Reference for the values: ChEMBL document CHEMBL1159065

test system: SK-N-MC; experiment: Induction of [59Fe] mobilization in human SK-N-MC cells prelabeled with [59Fe]transferrin at 50 uM after 3 hrs relative to untreated control; format: functional
The source made the active and inactive calls. The calls are words filed in the database; no cut-off is given here.
Labels: y (active), n (inactive)

INSERT INTO results (compound, class_name) VALUES
  ('CC(=O)N(O)CCCCCNC(=O)CCC(=O)N(O)CCCCCNC(=O)CCC(=O)N(O)CCCCCNC(=O)c1ccc(-n2nc(-c3ccccc3O)nc2-c2ccccc2O)cc1', 'y'),
  ('CC(=O)N(O)CCCCCNC(=O)CCC(=O)N(O)CCCCCNC(=O)CCC(=O)N(O)CCCCCNC(=O)C12CC3CC(CC(O)(C3)C1)C2', 'n'),
  ('CC(=O)N(O)CCCCCNC(=O)CCC(=O)N(O)CCCCCNC(=O)CCC(=O)N(O)CCCCCNC(=O)COc1ccc(C)cc1', 'y'),
  ('Cc1c(O)c(=O)ccn1C [DEFERIPRONE]', 'n');
